Value source: paper PMC9126592

Molecular target: β-hexosaminidase from bovine kidney
Assay: Commercial enzyme inhibition assay, β-hexosaminidase from bovine kidney
Conditions: mean ± SD (n = 3); competitive
pKi: −log10 of the molar value.
pKi below 7 gives not met; pKi at or above it gives met.

Consider the worked cases shown below.
> print(dat)
                                   compound  class.assignment
1  CCCCCCCCN=C1SCC2C(O)C(O)C(NC(C)=O)CN12 (centres unmarked)               met
2  CC(=O)NC1CN2C(=NCc3ccccc3)SCC2C(O)C1O (centres unmarked)               met
3  CCCCN=C1SCC2C(O)C(O)C(NC(C)=O)CN12 (centres unmarked)               met
4  CC(=O)N[C@H]1CN(C(=S)NCc2ccccc2)[C@H](CO)[C@H](O)[C@@H]1O           not met
5  CC(=O)NC1CN2C(=Nc3ccccc3)SCC2C(O)C1O (centres unmarked)               met

Ask: Decide: is the reported value of pKi for CCCCNC(=S)N1C[C@H](NC(C)=O)[C@@H](O)[C@@H](O)[C@H]1CO equal to or greater than 7?
Result: not met

Ask: In plain terms: is recorded pKi at least 7 for CCCCCCCCNC(=S)N1C[C@H](NC(C)=O)[C@@H](O)[C@@H](O)[C@H]1CO ?
Result: not met
